# assay-summary: amyloid nucleation score (Sup35N fusion, yeast selection) (log enrichment); library NNK3; higher = more nucleation; inactive = no reads after selection;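 note: zero at mode of non-aggregating sequences after 7 days selection at 30°C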
experimental-endpoint: amyloid nucleation score

SNPVFFVMLAPLWVAQLSNP | inactive
FADYLMKPCRMCLLRDPVYS | inactive
HDLAETCGSSPI | inactive
YTVGCSYMVWVVFNFFYFSE | 1
NSFFKGGWMHPG | inactive

Could you tell me amyloid nucleation score for each of these substances? They are listed below.
1. PVALLTD
2. QKAYKYSDI
3. HWAVRH
4. TYTSESWVHLVKYGSLNELE

Output:
inactive
inactive
0.212
inactive

====

Please provide measured amyloid nucleation score for the entries that follow.
# assay-summary: amyloid nucleation score (Sup35N fusion, yeast selection) (log enrichment); library NNK2; higher = more nucleation; inactive = no reads after selection
Numbers only.

Some solved cases for reference:
SVVVWDSSPCIGGSRVADS | 0.56
IMVVYETSVAGPRTSRGYCL | 4.73
CCIFWYCRADAINNCLARFD | 7.15
LCGSQFL | 0.705
GRGADKLTIG | 0.288

Could you tell me amyloid nucleation score for each of these substances? They are listed below.
1. ISWAVKMHDIPV
2. KAAVMRHMSCCCYYHP

Output:
[0.97, 0.845]

Could you tell me amyloid nucleation score for each of these substances? They are listed below.
1. SSQTGTCFARLQSAVFQVVW
2. MVGVVWSMTRFCGQHHTILG
3. NTSMSPSQYCC
4. RFFYYVVTLDAFNTFHKHLG
5. CYGYMIMSAFMVGHWEPDRM

Output:
1. 1.69
2. 0.531
3. 2.86
4. -1.56
5. 0.205

====

Please provide measured amyloid nucleation score for the entries that follow.
# assay-summary: amyloid nucleation score (Sup35N fusion, yeast selection) (log enrichment); library NNK2; higher = more nucleation; inactive = no reads after selection
One number for each entry.

Could you tell me amyloid nucleation score for each of these sequences? They are listed below.
1. TGILMWAGLQVHV
2. NFLCVSDKGCDCVESKLG
3. FYCYNFFWFL
4. SGERRTGCPEAAS

Output:
1: 1.86; 2: 8.14; 3: 6.08; 4: 0.075

====

Please provide measured amyloid nucleation score for the entries that follow.
# assay-summary: amyloid nucleation score (Sup35N fusion, yeast selection) (log enrichment); library NNK1; higher = more nucleation; inactive = no reads after selection
Give bare numbers.

Some solved cases for reference:
LWGRFYIYHSLFHRSHHVKL | -0.284
YLRRSGMLAFSSSHHR | 1.15
YVCIGFYSSPVLGIDFLGNK | 3.53

Could you tell me amyloid nucleation score for each of these substances? They are listed below.
1. HVHNYNFIFAVWIHP
2. VLYSELLGFRKSIIIMVWTR
3. LCLFGSWLKKLKYNRFLFVG
4. TISGAVRGCGGCSIRWLMSL
5. SWNRGVLESHKHAYFALPQF

Output:
1. 5.87
2. -0.015
3. -1.18
4. -0.663
5. 0.417

Could you tell me amyloid nucleation score for each of these substances? They are listed below.
1. VYLNFTISKVEVVTFFFIMG
2. YGSLIHMIRNEGLNIGGKSA
3. IGGFASLGYGYIRDVIRVTS
4. VIVWGSRSFLGC
5. PWFIYDSLGFNSRCRSHLIK
6. ASKKGPWFYSAVSYGLA
7. VFLIAWGLFSRMC

Output:
0.165
-0.51
0.493
3.49
-0.069
-0.128
4.54

Could you tell me amyloid nucleation score for each of these substances? They are listed below.
1. CFDNSFTFPPDG
2. NSEKLPMHPRGHAGQAWVQS
3. IVRNGQATWSWILRGPSWVG
4. LMTPEKVNEGATDRLRLFRN
5. RNLLNFFKISDTSTALDLLY
6. IFLNKRSTSAWFSMLLLFLS
7. TSDGVMMVR

Output:
1. 0.066
2. 0.153
3. -1.32
4. -0.323
5. -0.728
6. 1.4
7. 0.564

Could you tell me amyloid nucleation score for each of these substances? They are listed below.
1. HYGAKCGGPRAWGRDTDR
2. VLTWMDVTDLLGCVLKLSPV
3. SLMFTPEYCVED
4. SYGLWHMAM
5. SVDVTRIIMIVVCRFKMWEL
6. SSWSGMFTCSYTMMLWLRRL

Output:
[0.156, 1.36, 1.41, -0.232, 0.736, -0.692]

====

# assay-summary: amyloid nucleation score (Sup35N fusion, yeast selection) (log enrichment); library NNK3; higher = more nucleation; inactive = no reads after selection
experimental-endpoint: amyloid nucleation score

Some solved cases for reference:
SRFEGLASDTDMYSRDSTWR | inactive
ITHFIMCPYYDYQRDGHWIT | inactive
NWWIRGS | -0.185
WGWMSTIKIVG | inactive
RLGCCGVSSEWVCRKYLLRG | inactive
SMCPLYFINHAIAVDAMKFF | inactive
LNVVKNYIGLVRRHIIRVHF | inactive
NWSSRFMTT | inactive

Could you tell me amyloid nucleation score for each of these substances? They are listed below.
1. SSSESKFLYTDMWHMYWDFC
2. CVSMKRN
3. SLCMVTLDKAIRLYYNPMYF
4. RSFSNSDRMVSNLQFCYYFG
5. GPVSYHMRCLYTGLSIPHLF
6. MMCPLKLWYHVWFSGYTL
7. GVFMLVSNFASNWAT
8. HKEVMKNLCIFYPTDEMYRV

Output:
0.548
2.07
2.18
2.77
inactive
inactive
inactive
inactive

Could you tell me amyloid nucleation score for each of these substances? They are listed below.
1. TPKWILMERNTSRGWATSA
2. QWGSWE
3. SMADPRFQESYEDRETYSIS

Output:
1: inactive; 2: inactive; 3: inactive

Could you tell me amyloid nucleation score for each of these substances? They are listed below.
1. TAVWRFATSGKFFYSQSLGM
2. CFVVNCHYFDFMDV

Output:
[1.41, 2.51]

Could you tell me amyloid nucleation score for each of these substances? They are listed below.
1. VRNRSFGTALDNELLNLRPR
2. VRDQLRVTLVRSENGIHAHY
3. GTDWCTRHMPGIDPCDSVVC
4. WSYREVHRRDLGLLSNGTCW

Output:
1: inactive; 2: inactive; 3: -0.557; 4: inactive

Could you tell me amyloid nucleation score for each of these substances? They are listed below.
1. VSRMARYRLLTYRSAFNSML
2. MSLHCDHIAEGNELWGDVRR
3. ELNMAVDAVYCTGSVHKIVF
4. WCFMQQFVFTLGRKFRIWRI
5. CGEYMRCLNVEYRCVGVKGS
6. GGRYTVAAEVKVTHAYATG
7. HRRIPL

Output:
1: -0.605; 2: inactive; 3: 1.36; 4: inactive; 5: inactive; 6: inactive; 7: inactive

Could you tell me amyloid nucleation score for each of these substances? They are listed below.
1. VSSTALGGNNSICHLSPFYT
2. LRFTRRFYSRGWVRW
3. YERSRMSVWRNT
4. SNDIRF

Output:
inactive
inactive
inactive
inactive

====

# assay-summary: amyloid nucleation score (Sup35N fusion, yeast selection) (log enrichment); library NNK1; higher = more nucleation; inactive = no reads after selection
# amyloid nucleation score >= 0.2 gives condition met, anything below gives condition not met

LVLHNVDELYINSSHF | condition met

Task: Item FHCGMGIF with amyloid nucleation score of 0.2 or above?
Output: condition not met

Task: Item ASLVDVGSP with amyloid nucleation score of 0.2 or above?
Output: condition met

Task: Item TLNVFDH with amyloid nucleation score of 0.2 or above?
Output: condition not met

Task: Item HGMIRWYSYTSCHSYKVSGH with amyloid nucleation score of 0.2 or above?
Output: condition not met

Task: Item RRREKHAMDPELRARGQQ with amyloid nucleation score of 0.2 or above?
Output: condition not met

Task: Item IASVWFRCFHRNRLVWSLRR with amyloid nucleation score of 0.2 or above?
Output: condition met

Task: Item ISNWDVLSCMTQDIGVMTLL with amyloid nucleation score of 0.2 or above?
Output: condition not met

====

Please provide measured amyloid nucleation score for the entries that follow.
# assay-summary: amyloid nucleation score (Sup35N fusion, yeast selection) (log enrichment); library NNK1; higher = more nucleation; inactive = no reads after selection

Some solved cases for reference:
VILWRSRIASRCPTLM | -0.415
RVVWVVFGWGLIHLGGLLCG | 0.146
ITYYVNFDFCQGSLARVWLC | 5.01
CSSRVRMTRQLVKLVNICMR | -0.122
SRTHRDGTCYHSGTVKVHLP | -1.64
NRRDDNQCVSWIGVKAKVLS | 0.564

Could you tell me amyloid nucleation score for each of these sequences? They are listed below.
1. SRVQYLILDIMVTRYGASTS
2. LSRTSKSPFGGEFLERHIYI

Output:
1: -0.262; 2: -0.42
